System: TK-10 renal
Test: NCI tumour cell line growth inhibition, 48 h
Listing: TGI of selected molecules
quantityName: TGI

{"molecule": "COc1nc2ccc(COc3ccc(C(=O)NC(CCC(=O)O)C(=O)O)cc3)cc2nc1OC (stereo not drawn)", "target": "TK-10 renal", "result": "> 10 µM"}
{"molecule": "CCCCc1ccc(Nc2nc(Cl)c3ncn(COCCOC(C)=O)c3n2)cc1", "target": "TK-10 renal", "result": "35.1 µM"}
{"molecule": "COc1c(O)c(OC)c2oc(-c3ccc(O)c(O)c3)c(OC)c(=O)c2c1O", "target": "TK-10 renal", "result": "99.5 µM"}
{"molecule": "c1ccc2c(CN3CCN(Cc4c[nH]c5ccccc45)CC3)c[nH]c2c1", "target": "TK-10 renal", "result": "29.1 µM"}
{"molecule": "O=P1(Oc2ccccc2)N=P(c2ccccc2)(c2ccccc2)C=C(c2ccc(Cl)cc2)N1 (stereo not drawn)", "target": "TK-10 renal", "result": "26.8 µM"}
{"molecule": "CSc1ccc(-c2ccccc(=O)c2O)cc1", "target": "TK-10 renal", "result": "> 100 µM"}
{"molecule": "C=C1CC2CCCC12C=O (stereo not drawn)", "target": "TK-10 renal", "result": "> 10 µM"}
{"molecule": "CC[C@H]1CN2CCc3cc(OC)c(OC)cc3C2C[C@@H]1CC1NCCc2cc(OC)c(OC)cc21 (stereo partly drawn)", "target": "TK-10 renal", "result": "0.572 µM"}
{"molecule": "COc1cc(/C=C2/SC(c3ccccc3)N(Cc3ccccc3)C2=O)cc(OC)c1OC (stereo not drawn)", "target": "TK-10 renal", "result": "> 100 µM"}
{"molecule": "OCc1cc2c(ccc3sc4ccc5sc6ccc7ncccc7c6c5c4c32)s1", "target": "TK-10 renal", "result": "> 100 µM"}
{"molecule": "CN(C)c1ccc(/C=C/c2ccnc3c(O)cccc23)cc1", "target": "TK-10 renal", "result": "> 100 µM"}
{"molecule": "Cc1c2ccnc(C(=O)NCCN(C)C)c2cc2c3cc(O)ccc3n(C)c12", "target": "TK-10 renal", "result": "9.05 µM"}
{"molecule": "COc1ccc(OC)c(CSc2ccc(OC)c(OC)c2)c1", "target": "TK-10 renal", "result": "> 100 µM"}
{"molecule": "C=C1CCCC2[C@](C)(CC3=C(Cl)C(=O)C=C(OC)C3=O)C(C)CC[C@]12C (stereo partly drawn)", "target": "TK-10 renal", "result": "11.6 µM"}
{"molecule": "C=C=C(C(=O)OC)S(=O)c1ccccc1[N+](=O)[O-] (stereo not drawn)", "target": "TK-10 renal", "result": "> 100 µM"}
{"molecule": "CC(C)N1CC2CN(Cc3ccccc3)CC(C1)C2=O", "target": "TK-10 renal", "result": "> 100 µM"}
{"molecule": "COc1ccc(/C=C(/C(=O)N2CCN(c3ccccc3)CC2)c2cc(OC)c(OC)c(OC)c2)cc1N", "target": "TK-10 renal", "result": "> 100 µM"}
{"molecule": "COC(=O)CCC(NC(=S)N/N=C/c1ccccn1)C(=O)OC (stereo not drawn)", "target": "TK-10 renal", "result": "> 100 µM"}
{"molecule": "COc1ccccc1C1C(Cl)C(=O)N1n1cnc2ccccc2c1=O (stereo not drawn)", "target": "TK-10 renal", "result": "> 100 µM"}
{"molecule": "Cc1ccc(S(=O)(=O)CN2C(=O)C(c3ccccc3)(c3ccccc3)C23OC(c2ccc(Cl)cc2)=CC3=O)cc1 (stereo not drawn)", "target": "TK-10 renal", "result": "> 10 µM"}
{"molecule": "NC1=NC2=c3ccccc3=C(c3cnccn3)C2(c2cnccn2)c2ccccc21 (stereo not drawn)", "target": "TK-10 renal", "result": "> 100 µM"}
{"molecule": "COC(=O)[C@H](Cc1ccccc1)NC(=O)/C(=C/C(C)C)NC(=O)[C@H](CCSC)NC=O", "target": "TK-10 renal", "result": "> 100 µM"}
{"molecule": "O=C1NC(=S)N/C1=C\\c1cc2c(=O)c3ccccc3sc2s1", "target": "TK-10 renal", "result": "> 100 µM"}

###

Listing: TGI of selected compounds
System: M19-MEL melanoma
Test: NCI tumour cell line growth inhibition, 48 h
quantityName: TGI

{"compound": "COc1ccc(C(CCC(C)=O)C(=O)O)cc1OC (stereo not given)", "result": "> 100 µM"}
{"compound": "CC(=O)OC1CC2CCN3C(=O)c4cc5c(cc4[C@H](C1OC(C)=O)C23)OCO5 (stereo not given in full)", "result": "> 100 µM"}
{"compound": "CN(C)c1ccc(/C=C/C(=O)[O-])cc1.CN(C)c1ccc(/C=C/C(=O)[O-])cc1.[Cu+2]", "result": "> 61.2 µM"}
{"compound": "Nc1c(-c2cn(Cc3ccccc3)c3ccccc23)[n+]([O-])c2ccccc2[n+]1[O-]", "result": "> 100 µM"}
{"compound": "CC(=O)Nc1ccc(/C=c2\\sc3nnc(CCC(=O)Nc4ccccc4Cl)n3c2=O)cc1", "result": "> 100 µM"}

###

Listing: TGI of selected molecules
System: MOLT-4 leukemia
Experiment: NCI tumour cell line growth inhibition, 48 h

{"molecule": "COc1cccc2ccc(C(=O)c3ccccc3)nc12", "TGI": "> 100 µM"}
{"molecule": "N#CC(N)c1ccc(OCCCCCCCCCCOc2ccc(C(N)C#N)cc2)cc1 (centres undefined)", "TGI": "> 100 µM"}
{"molecule": "O=C(Cn1cc(-c2ccccc2)nn1)NC1CCCCC1", "TGI": "> 100 µM"}
{"molecule": "CCOC(=O)C1=C(C)N=c2s/c(=C\\c3ccccc3O)c(=O)n2C1c1ccc(OC)c2ccccc12 (centres undefined)", "TGI": "> 100 µM"}
{"molecule": "COc1cc2nccc(Oc3ccc(NC(=O)NC4CC4)c(Cl)c3)c2cc1C(N)=O", "TGI": "> 100 µM"}
{"molecule": "CCOC(=O)C1SC(=Nc2cccc(Cl)c2C)N=C1C (centres undefined)", "TGI": "78.8 µM"}
{"molecule": "CC1(C)CC(=O)C(/C=N/C(N)=S)=C(O)C1", "TGI": "> 100 µM"}
{"molecule": "Cc1cc(Cl)cc2c(N=Nc3ccc(S(N)(=O)=O)cc3)c(O)[nH]c12", "TGI": "> 25 µM"}
{"molecule": "CC[C@H](NC(=O)[C@H]1CCCCN1C)C(=O)N(C)[C@H](C[C@@H](OC(C)=O)c1nc(C(=O)N[C@@H](Cc2ccccc2)C[C@H](C)C(=O)O)cs1)C(C)C", "TGI": "> 14.3 µM"}
{"molecule": "CSC1=Nc2c(c(C)c(-c3ccccc3)n2CCCN2CCCCC2)C2=NC(=O)C[C@H](C)N12", "TGI": "> 22.5 µM"}
{"molecule": "CCCCCC1CC=CC(=O)O1 (centres undefined)", "TGI": "> 100 µM"}
{"molecule": "CCOC(=O)c1ccc(Nc2sc(C(=O)c3ccc(Br)cc3)c(N)c2C#N)cc1", "TGI": "> 100 µM"}
{"molecule": "CN1C(=O)CCC2[C@@H]3CC=C4C[C@@H](O)CC[C@]4(C)C3CC[C@@]21C (some centres undefined)", "TGI": "69.6 µM"}
{"molecule": "C[Si](C)(C)C#Cc1cc(-c2nc3ccccc3s2)ccc1N", "TGI": "97.4 µM"}
{"molecule": "CN(C)CCCC1c2ccccc2Oc2ccc(C(F)(F)F)cc21 (centres undefined)", "TGI": "22.7 µM"}
{"molecule": "O=C(COc1ccc(/C=C2\\COc3ccccc3C2=O)cc1)Nc1nccs1", "TGI": "3.76 µM"}
{"molecule": "CO/C=C/C(=O)c1cc2cnc3c(=N)cc(NC(=O)C(C)C)c([nH]1)c23", "TGI": "0.166 µM"}
{"molecule": "CC(=O)Nc1ccccc1-c1nc2ccccc2nc1C", "TGI": "> 100 µM"}
{"molecule": "COc1ccc(OC)c(CSc2ccc(OC)c(OC)c2)c1", "TGI": "> 100 µM"}
{"molecule": "Nc1ccccc1Nc1ccccc1C(=O)[O-].Nc1ccccc1Nc1ccccc1C(=O)[O-].[Zn+2]", "TGI": "> 100 µM"}
{"molecule": "CCC(CC)c1nc(Nc2ccc(C(=O)OC)cc2)c2ccccc2n1", "TGI": "3.67 µM"}
{"molecule": "C=C1CC2CCCC12C=O (centres undefined)", "TGI": "> 10 µM"}
{"molecule": "CC(C)(C)c1cc(-c2cc(C(C)(C)C)[nH]n2)n[nH]1", "TGI": "> 100 µM"}
{"molecule": "CCCCCCCCOCC(O)COC(C)C (centres undefined)", "TGI": "45 µM"}
{"molecule": "COc1ccccc1NC(=O)C1=C(C)NC(C)=C(C(=O)Nc2ccccc2OC)C1C1=CC=COC1", "TGI": "> 100 µM"}
{"molecule": "COc1ccc(C(=O)Nc2ncc(Cc3cccc(Cl)c3)s2)cc1OC", "TGI": "> 100 µM"}
{"molecule": "O=C1CC[C@H](N2C(=O)c3cccc4c(Cc5ccc(CN6CCOCC6)cc5)ccc2c34)C(=O)N1", "TGI": "> 100 µM"}
{"molecule": "NC1=NC2=c3ccccc3=C(c3cnccn3)C2(c2cnccn2)c2ccccc21 (centres undefined)", "TGI": "95.8 µM"}
{"molecule": "COC(=O)c1c(C)cccc1C1CN=NC12Cc1ccccc1C2=O (centres undefined)", "TGI": "> 100 µM"}
{"molecule": "CCCC(=O)NC(Nc1cc(C)ccn1)(C(=O)OCC)C(F)(F)F (centres undefined)", "TGI": "> 100 µM"}
{"molecule": "CC12OOC(c3ccccc31)c1c2ccc2ccccc12 (centres undefined)", "TGI": "3.42 µM"}
{"molecule": "COc1cc(=O)c2c(O)c3c(O)oc(C)cc3c(OC)c2c1", "TGI": "73.7 µM"}
{"molecule": "COc1cc(/C=C2/SC(c3ccccc3)N(Cc3ccccc3)C2=O)cc(OC)c1OC (centres undefined)", "TGI": "63.2 µM"}
{"molecule": "C[n+]1c(/C=C/c2c[nH]c3ccccc23)ccc2ccccc21", "TGI": "15.5 µM"}
